# Study Target: Transient receptor potential cation channel subfamily A member 1 (Homo sapiens) (UniProt O75762)
# Sequence (O75762 whole entry): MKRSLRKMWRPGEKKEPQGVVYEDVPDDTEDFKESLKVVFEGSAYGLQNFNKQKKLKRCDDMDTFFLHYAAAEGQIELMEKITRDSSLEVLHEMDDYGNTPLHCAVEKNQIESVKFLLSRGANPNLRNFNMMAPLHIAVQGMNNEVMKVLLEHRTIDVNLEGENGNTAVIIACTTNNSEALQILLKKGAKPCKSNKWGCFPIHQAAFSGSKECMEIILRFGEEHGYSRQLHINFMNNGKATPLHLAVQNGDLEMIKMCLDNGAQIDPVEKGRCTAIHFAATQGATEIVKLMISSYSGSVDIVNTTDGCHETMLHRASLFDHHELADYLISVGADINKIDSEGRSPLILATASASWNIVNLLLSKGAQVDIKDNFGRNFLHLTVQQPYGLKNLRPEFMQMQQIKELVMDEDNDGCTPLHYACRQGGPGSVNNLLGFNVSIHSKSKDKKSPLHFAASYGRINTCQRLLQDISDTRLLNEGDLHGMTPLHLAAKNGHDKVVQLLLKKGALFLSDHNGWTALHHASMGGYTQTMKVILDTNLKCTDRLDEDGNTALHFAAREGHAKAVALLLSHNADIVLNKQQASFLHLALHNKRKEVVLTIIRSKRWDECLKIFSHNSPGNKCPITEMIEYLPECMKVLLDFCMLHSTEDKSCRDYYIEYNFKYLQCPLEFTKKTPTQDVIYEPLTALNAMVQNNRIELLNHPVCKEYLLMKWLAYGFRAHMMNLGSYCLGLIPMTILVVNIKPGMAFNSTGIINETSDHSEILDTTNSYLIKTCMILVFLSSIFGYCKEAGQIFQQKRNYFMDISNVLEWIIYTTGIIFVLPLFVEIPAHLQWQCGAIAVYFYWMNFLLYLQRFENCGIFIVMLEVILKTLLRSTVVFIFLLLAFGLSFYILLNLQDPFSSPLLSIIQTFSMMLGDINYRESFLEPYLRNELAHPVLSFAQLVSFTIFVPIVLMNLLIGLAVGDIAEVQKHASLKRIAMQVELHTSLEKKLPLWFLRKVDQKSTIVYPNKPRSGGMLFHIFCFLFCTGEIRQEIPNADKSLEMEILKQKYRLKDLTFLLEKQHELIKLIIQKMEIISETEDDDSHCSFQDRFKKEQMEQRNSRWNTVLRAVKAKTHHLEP
# Protocol Notes: Agonist activity at TRPA1
# Format: functional
Quantity Measured: Activity
Your answer should be a number followed by the unit of measure.

O=C/C=C/c1ccccc1 = 10 µM
C=CCS[S+]([O-])CC=C (centres undefined) = 10 µM
CCCCCc1cc(O)c2c(c1)OC(C)(C)[C@@H]1CCC(C)=C[C@@H]21 = 10 µM

API: the following record is the query input.
Consider the compound shown here: O=C1NC(c2cccc([N+](=O)[O-])c2)=CCN1c1ccccc1O What is its recorded Activity? 0.099 µM
